Test system: houseflies (Musca domestica)
Assay: Mortality test with houseflies by topical application method
Settings: 24 h
PROPERTY NAME: mortality at 0.5 µg/female (%)
Give the number; % is assumed, so skip it.

COMPOUND | mortality at 0.5 µg/female (%)
CC1(C)C(C=C(Cl)Cl)C1C(=O)OC(C#N)c1cccc(Oc2cc(Cl)cc(Cl)c2)c1 (stereo not shown) | 0
CC1(C)C(C=C(Cl)Cl)C1C(=O)OCc1cccc(Oc2ccccc2)c1 (stereo not shown) | 100
CC1(C)C(C=C(Cl)Cl)C1C(=O)OC(C#N)c1cccc(Oc2ccccc2)c1 (stereo not shown) | 100
CC1(C)[C@@H](C=C(Cl)Cl)[C@@H]1C(=O)OCc1cccc(Oc2ccc(Cl)cc2)c1 (relative stereo) [Compound (1) trans-] | 100

Task: I'd like to know its mortality at 0.5 µg/female. The compound in question is CC1(C)C(C=C(Cl)Cl)C1C(=O)OCc1cccc(Oc2ccc(Cl)cc2)c1 (stereo not drawn) [Compound (1) cis-/trans- = 50:50]
Result: 100

Task: Which measured mortality at 0.5 µg/female value corresponds to Cc1ccc(Oc2cccc(COC(=O)C3C(C=C(Cl)Cl)C3(C)C)c2)cc1 (stereo not shown) ?
Result: 80

Task: Would you mind telling me what mortality at 0.5 µg/female value was observed for CC1(C)C(C=C(Cl)Cl)C1C(=O)OC(C#N)c1cccc(Oc2ccc(Cl)cc2)c1 (stereo not drawn) [Compound (G) cis-/trans- = 50:50] ?
Result: 100
